molecular target: dopamine transporter (DAT) (Rattus norvegicus (Rat)); experiment: [3H]dopamine (DA) uptake inhibition in rat brain (caudate) synaptosomes; settings: rat caudate synaptosomes, 5 nM [3H]dopamine, mean ± SD
Sequence (P23977 whole entry): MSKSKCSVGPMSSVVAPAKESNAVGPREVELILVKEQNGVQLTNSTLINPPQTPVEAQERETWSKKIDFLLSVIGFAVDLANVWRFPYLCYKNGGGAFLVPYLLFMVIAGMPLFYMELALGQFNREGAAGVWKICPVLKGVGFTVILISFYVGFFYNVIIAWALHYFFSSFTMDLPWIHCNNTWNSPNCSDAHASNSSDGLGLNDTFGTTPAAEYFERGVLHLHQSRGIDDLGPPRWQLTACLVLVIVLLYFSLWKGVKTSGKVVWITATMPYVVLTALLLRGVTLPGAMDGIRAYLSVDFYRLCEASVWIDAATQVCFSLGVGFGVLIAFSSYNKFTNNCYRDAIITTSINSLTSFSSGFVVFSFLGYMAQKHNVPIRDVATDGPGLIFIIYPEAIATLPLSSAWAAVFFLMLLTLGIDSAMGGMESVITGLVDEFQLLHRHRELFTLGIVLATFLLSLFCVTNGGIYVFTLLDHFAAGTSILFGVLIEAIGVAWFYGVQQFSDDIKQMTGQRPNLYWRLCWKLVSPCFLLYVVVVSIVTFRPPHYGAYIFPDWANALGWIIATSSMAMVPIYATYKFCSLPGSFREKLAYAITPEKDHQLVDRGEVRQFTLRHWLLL
Exercise: state measured pEC50 for each of the compounds provided.
Formally, pEC50 is defined as -log10 of the concentration c, with c in mol/L.

Recorded result, CS(=O)(=O)Nc1ccc(-c2nc(NCC(Oc3ccccc3)c3ccccc3)c3ccccc3n2)cc1 (centres unmarked) , pEC50: 7.52

Recorded result, CN(C)c1ccc(-c2nc(NCC(C)(c3ccccc3)c3ccccc3)c3ccccc3n2)cc1 , pEC50: 7.82

Recorded result, CN(C)c1ccc(-c2nc(NCC(c3ccccc3)c3ccc[nH]3)c3ccccc3n2)cc1 (centres unmarked) , pEC50: 8.25

Recorded result, CN(C)c1ccc(-c2nc(NCC(c3cccnc3)c3ccc[nH]3)c3ccccc3n2)cc1 (centres unmarked) , pEC50: 7.33

Recorded result, CS(=O)(=O)Nc1ccc(-c2nc(NCC(c3ccccc3)C3CCCCC3)c3ccccc3n2)cc1 (centres unmarked) , pEC50: 7.80

Recorded result, CC(C)C(CNc1nc(-c2ccc(NS(C)(=O)=O)cc2)nc2ccccc12)c1ccccc1 (centres unmarked) , pEC50: 7.70

Recorded result, CS(=O)(=O)Nc1ccc(-c2nc(NCC(c3ccncc3)c3ccncc3)c3ccccc3n2)cc1 , pEC50: 7.33

Recorded result, CS(=O)(=O)Nc1ccc(-c2nc(NCC(c3ccccc3)c3ncccn3)c3ccccc3n2)cc1 (centres unmarked) , pEC50: 6.32

Recorded result, CN(C)c1ccc(-c2nc(NC(CCc3ccccc3)c3ccccc3)c3ccccc3n2)cc1 (centres unmarked) , pEC50: 7.12

Recorded result, CC(CNc1nc(-c2ccc(NS(C)(=O)=O)cc2)nc2ccccc12)(c1ccccc1)c1ccccc1 , pEC50: 7.80

Recorded result, CN(C)c1ccc(-c2nc(NCCc3ccccc3)c3ccccc3n2)cc1 , pEC50: 6.81

Recorded result, CS(=O)(=O)Nc1ccc(-c2nc(NCC(c3ccccc3)N3CCCCC3)c3ccccc3n2)cc1 (centres unmarked) , pEC50: 7.21

Recorded result, CN(C)c1ccc(-c2nc(NCC(O)(c3ccccc3)c3ccccc3)c3ccccc3n2)cc1 , pEC50: 8.17

Recorded result, CN(C)c1ccc(-c2nc(NCC(c3ccccc3)N3CCCC3)c3ccccc3n2)cc1 (centres unmarked) , pEC50: 6.95
